Test: Cmax in Wistar Han rat at 300 mg/kg, po by LC/MS method
Type: ADME, organism-based
Design: dose 300 mg/kg, route oral
Conditions: in vivo
REPORTED PROPERTY: Cmax

Examples from the recorded data:
{"columns": ["COMPOUND", "ASSAY RESULT"],
 "data": [
  ["COC(=O)N[C@H](C(=O)N1CCC[C@H]1c1ncc(-c2cc(F)c3c(c2)O[C@@H](c2ccc(C4CC4)s2)n2c-3cc3cc(-c4cnc([C@@H]5CCCN5C(=O)[C@@H](NC(=O)OC)C5C[C@@H](C)O[C@@H](C)C5)[nH]4)ccc32)[nH]1)C(C)C (some centres undefined)", "390 nM"],
  ["COC(=O)N[C@H](C(=O)N1CCC[C@H]1c1ncc(-c2cc(F)c3c(c2)O[C@@H](c2ccc(C4CC4)s2)n2c-3cc3cc(-c4cnc([C@@H]5CCCN5C(=O)[C@@H](NC(=O)OC)C5C[C@@H](C)O[C@H](C)C5)[nH]4)ccc32)[nH]1)C(C)C (some centres undefined)", "510 nM"],
  ["COC(=O)N[C@H](C(=O)N1CCC[C@H]1c1ncc(-c2cc(F)c3c(c2)O[C@@H](c2ccc(C4CC4)s2)n2c-3cc3cc(-c4cnc([C@@H]5CCCN5C(=O)[C@@H](NC(=O)OC)[C@@H]5CCOC(C)(C)C5)[nH]4)ccc32)[nH]1)C(C)C", "1060 nM"]
]}

Input line: Recorded Cmax of COC(=O)N[C@H](C(=O)N1CCC[C@H]1c1ncc(-c2cc(F)c3c(c2)O[C@@H](c2ccc(C4CC4)s2)n2c-3cc3cc(-c4cnc([C@@H]5CCCN5C(=O)[C@@H](NC(=O)OC)C5CCOCC5)[nH]4)ccc32)[nH]1)C(C)C , please.
Output line: 360 nM
